Origin of measurements: the RNAGym collection of RNA variant scans (doi:10.1073/pnas.2313332121)

B1: TPR t1 (parent)
chain: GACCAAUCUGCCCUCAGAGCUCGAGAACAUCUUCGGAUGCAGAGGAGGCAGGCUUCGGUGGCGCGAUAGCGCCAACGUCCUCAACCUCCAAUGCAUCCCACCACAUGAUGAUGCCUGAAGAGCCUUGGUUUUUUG

- Variants of: B1
- experiment_notes: polymerase ribozyme fitness, log enrichment relative to wild type (log ratio); higher = more active; in vitro selection for triplet polymerase activity
Quick list: polymerase ribozyme fitness (log ratio) per entry.

mutation_annotation	polymerase ribozyme fitness (log ratio)
G36C C76G	-1.25
C4A C114G	-4.25
U9G C70U U81C G110U	-3.84
A41G G60A	-0.408
U38G C97U	-4.33
C13G U54G	-1.83
A2U C94U C104U	-2.44
C20A C104A	-3.99
A91G A100C	-2.5
C22G C72U	-3.13
G57A C76U A90U	-1.14
C53G C97U C104A A118G	-3.19
G71U C73G A90U C114U	-7.06
G42C U54G	-1.44
U21C G45C C56U G69A U109A A111U C124G	-8.04
C8G A43C A50U C115U G127U	-4.94
A6U A26U C34A A43U A121C	-7.38
A16G A41U G60U C86G C124G	-2.13
C15U A16C	-2.44
C15G G17C	-4.24
C15A A46C	-3.02
U55A C62A U78C C79A U125G U133G	-3.28
